Assay: enzyme activity assay at 23° C. with purified enzyme
Type: biochemical
Settings: wild-type set at 100%
quantity_kind: maximum activity as a percentage of the wild-type enzyme's activity, Fluazifop (%)
Report the figure in % without appending any unit label.

A selection of reference data follows.
MON-HT3: engineered oxygenase protein, amino acid sequence SEQ ID NO:22 (protein) MHAALSPLSQRFERIAVQPLTGVLGAEITGVDLREPLDDSTWNEILDAFHTYQVIYFPGQAITNEQHIAFSRRFGPVDPVPLLKSIEGYPEVQMIRREANESGRVIGDDWHTDSTFLDAPPAAVVMYAKEVPPYGGDTLFASMYTAWETLSPTMQATIEGLNVVHSATRVFGSLYQAQNRRFSNTSVKVMDVDAGDRETVHPLVVTHPETGRKGLYVNQVYCQRIEGMSEKESEPLLSFLFAHATKPEFTCRVRWQEGQVLVWDNLCTQHFAVPDYAGKFRYLTRTTVGGVRPAR : 60
MON-HT4: engineered oxygenase protein, amino acid sequence SEQ ID NO:25 (protein) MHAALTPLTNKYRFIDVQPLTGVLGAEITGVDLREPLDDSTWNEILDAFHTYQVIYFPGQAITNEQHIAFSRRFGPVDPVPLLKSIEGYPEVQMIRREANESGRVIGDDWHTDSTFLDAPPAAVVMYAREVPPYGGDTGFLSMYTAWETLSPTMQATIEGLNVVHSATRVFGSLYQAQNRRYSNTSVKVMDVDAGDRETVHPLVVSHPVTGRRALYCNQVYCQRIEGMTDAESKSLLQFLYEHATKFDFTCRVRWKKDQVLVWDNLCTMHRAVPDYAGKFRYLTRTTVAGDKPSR : 52

# context switch: different molecule, same maximum activity as a percentage of the wild-type enzyme's activity, Fluazifop
Inquiry: Can you look up the measured maximum activity as a percentage of the wild-type enzyme's activity, Fluazifop of MON-HT5: engineered oxygenase protein, amino acid sequence SEQ ID NO:28 (protein) MHAALTPLTNKYRFIDVQPLTGVLGAEITGVDLREPLDDSTWNEILDAFHTYQVIYFPGQAITNEQHIAFSRRFGPVDPVPLLKSIEGYPEVQMIRREANESGRVIGDDWHTDSTFLDAPPAAVVMRAIEVPEYGGDTGFLSMYSAWETLSPTMQATIEGLNVVHSATKVFGSLYQATNWRFSNTSVKVMDVDAGDRETVHPLVVTHPVTGRRALYCNQVYCQKIQGMTDAESKSLLQFLYEHATKFDFTCRVRWKKDQVLVWDNLCTMHRAVPDYAGKFRYLTRTTVAGDKPSR for me?
Reply text: 46
